The entries below are paired with their reported apparent KD of MS2 coat protein.
- Tested on: MS2 coat protein
- Protocol details: apparent KD of MS2 coat protein; designed switch direction (-1 OFF switch, 1 ON switch): 1; higher = weaker reporter binding
- Condition: input ligand: none
Parameter measured: apparent KD of MS2 coat protein (µM)

[[record]]
residue_codes = "CAUCCCUCCACAGGAUAUCGACCAAUAAAACGGCGAGAAGGGUGGCCACAUGAGGAUCACCCAUGUGGAAUUGGAUGAACUACC [Atusmaceor] (Eterna round: R96, puzzle: Same State NG 1)"
target_desc = "MS2 coat protein"
quantitative_result = 0.077

[[record]]
residue_codes = "UGGUACAUGGGAGGAUAUCUCAUGGAGACAUGAGGAUCACCCAUGUAGAUGGCCGGUAACCGGAGAGAGAAGGCCCAUGUACCU [JL SSNG1 3.67] (Eterna round: R96, puzzle: Same State NG 2)"
target_desc = "MS2 coat protein"
quantitative_result = 0.198

[[record]]
residue_codes = "ACGUGAGGCGCAGGAUAUACAUGAGGAUCACCCGUAGAAGGGCGCACCCAUAACAUGAGGAUCACCCAUGUUGUCCAUGUCCAU [Same State NG 1 S5] (Eterna round: R96, puzzle: Same State NG 1)"
target_desc = "MS2 coat protein"
quantitative_result = 0.241

[[record]]
residue_codes = "CUGAGCAAGCAAGGAUAUCACGUCGAAUAGACGUGAGAAGGUGCUCCUUACAUGAGGAUCACCCAUGUAUAACAUGAAGCUCAG [SSNG1/10-A1] (Eterna round: R96, puzzle: Same State NG 1)"
target_desc = "MS2 coat protein"
quantitative_result = 1.26

[[record]]
residue_codes = "AUGAAGAAUUAAGGAUAUUGAAUACAUAUGUUUAACAUGAGGAUCACCCAUGUGGGUUGCGGUAUCGAGAAGGUAAAUUAAUAG [Mat - same State NG 2 - JL mod - D90] (Eterna round: R96, puzzle: Same State NG 2)"
target_desc = "MS2 coat protein"
quantitative_result = 0.143

